tested on: K4 kissing-loop RNA reporter; assay: apparent KD of K4 kissing-loop reporter; higher = weaker reporter binding; settings: Eterna round: R107; input ligand: theophylline 20 uM;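 also: bound reporter read as fluorescence of individual clusters on recovered sequencing chips by microscopy, with normalized cluster intensities fitted with a binding model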
endpoint label: apparent KD of K4 kissing-loop reporter (nM)
All answers are understood in nM, so give the number only.

Record summary for UGUACCGAGUCAGGAUAUGUCGUCGAAAGACGAAAUGGAGUGAUGUUCCUUAAACUGCGAAAGCAGACAGAAGGGACUUGGUACU [FmnBS 29 #SwitchBubble #StaticStem #DoubleMagnetSystem] : reported apparent KD of K4 kissing-loop reporter = 331

====

test system: MS2 coat protein; test: apparent KD of MS2 coat protein; designed switch direction (-1 OFF switch, 1 ON switch): -1; higher = weaker reporter binding; conditions: input ligand: FMN 200 uM
Outcome label depends on apparent KD of MS2 coat protein relative to 200 nM: at/above gives Condition met, below gives Condition not met.

Input: Would you say GCCUCACUUGAGGAUCACCCAAGUCAGGAUAUCUACAAGCCGACCAUACCGGCUUGCAAGAGAAGGGACUCUAA [Esonreti] (Eterna round: R97, puzzle: Exclusion 1) shows apparent KD of MS2 coat protein at minimum 200 nM?
Output: Condition met

Input: Is apparent KD of MS2 coat protein for GUAUCCGAGAAGGAUAUCAAUGGCCCGGACCACUGAGAAGGUCUCACAUGAGGAUCACCCAUGUCACAGGUGCA [Eternabot (Original) Solution 29] (Eterna round: R97, puzzle: Exclusion 6) at or above 200 nM?
Output: Condition not met

Input: Can AAGAUGUCAGGAUAUUAGUAGUAAAUGAAUAAAAUUAUUACUGAGAAGGGACAUGAGGAUCACCCAUGUGCCUU [Mat - Exclusion 4 - Eli Mod - D10] (Eterna round: R97, puzzle: Exclusion 4) be said to have apparent KD of MS2 coat protein at or above 200 nM?
Output: Condition not met

Input: Please tell me: is the sequence CUGCUCCGUGUAGGAUAUGCAUACUCCCAUUAUGCAGAAGGACAUGAGGAUCACCCAUGUAUGUUAUUAUCAUGUGUUGCGUAC [Design 13] (Eterna round: R96, puzzle: Exclusion NG 1) at or over 200 nM in terms of apparent KD of MS2 coat protein?
Output: Condition met

Data provenance: the supplement of paper PMC9170038
